Target: human RXFP1 (Homo sapiens)
Sequence (Q9HBX9 1-757): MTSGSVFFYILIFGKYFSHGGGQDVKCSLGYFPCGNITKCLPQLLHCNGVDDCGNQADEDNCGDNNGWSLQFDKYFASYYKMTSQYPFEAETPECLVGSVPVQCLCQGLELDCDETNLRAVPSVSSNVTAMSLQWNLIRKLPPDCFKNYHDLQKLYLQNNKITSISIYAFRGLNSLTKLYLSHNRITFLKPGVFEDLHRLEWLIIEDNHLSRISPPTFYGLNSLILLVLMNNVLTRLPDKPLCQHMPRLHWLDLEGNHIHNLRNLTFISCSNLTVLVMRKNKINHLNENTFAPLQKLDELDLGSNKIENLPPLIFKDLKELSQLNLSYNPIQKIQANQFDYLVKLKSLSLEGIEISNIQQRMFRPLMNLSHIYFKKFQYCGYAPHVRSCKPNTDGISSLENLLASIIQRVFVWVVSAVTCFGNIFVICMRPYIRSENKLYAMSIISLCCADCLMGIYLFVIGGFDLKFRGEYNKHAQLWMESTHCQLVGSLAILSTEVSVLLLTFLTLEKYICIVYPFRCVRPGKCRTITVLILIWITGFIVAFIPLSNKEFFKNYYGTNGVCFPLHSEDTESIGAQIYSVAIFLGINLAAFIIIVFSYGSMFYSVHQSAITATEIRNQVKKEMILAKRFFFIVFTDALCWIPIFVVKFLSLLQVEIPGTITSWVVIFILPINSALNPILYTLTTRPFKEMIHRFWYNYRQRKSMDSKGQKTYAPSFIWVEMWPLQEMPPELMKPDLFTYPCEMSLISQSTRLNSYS
Test: hRXFP1 HEK293 cAMP assay (HTRF)
Conditions: HEK293 cells stably expressing human RXFP1; 30 min at rt; intracellular cAMP by HTRF
pEC50: −log10 of the molar value.
experimental.readout: pEC50

The following compounds have reported results that may help.
COc1ccc(C2CCN(C(=O)CC(C)(C)O)C2)cc1C(=O)Nc1c(C(=O)Nc2ccc(F)c(C(F)(F)F)c2)sc2cc(C(F)(F)F)ccc12 (stereo not drawn) : 6.29
COc1ccc(C2CC2C(=O)NCC(C)(C)O)cc1C(=O)Nc1c(C(=O)Nc2ccc(F)c(C(F)(F)F)c2)sc2cc(C(F)(F)F)ccc12 (stereo not drawn) [Example 170] : 5.96
COc1ccc(C2CC2C(=O)O)cc1C(=O)Nc1c(C(=O)Nc2ccc(F)c(C(F)(F)F)c2)sc2cc(C(F)(F)F)ccc12 (stereo not drawn) [Example 46] : 6.53

I: COc1cc(F)c(C(=O)NCC2(S(C)(=O)=O)CC2)cc1C(=O)Nc1c(C(=O)Nc2ccc(F)c(C(F)(F)F)c2)sc2cc(C(F)(F)F)ccc12
II: COc1ccc(C(=O)N2CC3(C2)CS(=O)(=O)C3)cc1C(=O)Nc1c(C(=O)Nc2ccc(F)c(C(F)(F)F)c2)sc2cc(C(F)(F)F)ccc12
III: COc1ccc(C2CC2C(=O)N2CC(C(C)(C)O)C2)cc1C(=O)Nc1c(C(=O)Nc2ccc(F)c(C(F)(F)F)c2)sc2cc(C(F)(F)F)ccc12 (stereo not drawn) [Example 169]
Q. Please produce an ascending ranking of these compounds based on pEC50. Lab note: final answer is the ordered label list.
A. III, II, I
(III: 5.65, II: 6.55, I: 6.99)
